Data credit: ChEMBL document CHEMBL4425166

solubility at 24 h for assorted compounds
Assay: Aqueous solubility of compound in buffer of pH 6.8 after 24 hrs by UV-based high throughput assay
Type: physicochemical

COC(=O)N1CCN(c2ccc(NC(=O)Cc3cnc(-c4ccnc(C)c4)c(C)c3)nc2)CC1 > 175 µM
CC(=O)N1CCN(c2ccc(NC(=O)Cc3cnc(-c4ccnc(C)c4)c(C)c3)nc2)CC1 > 175 µM

With those in mind, consider the next compound.
Exercise: Query (compound): Cc1cc(-c2ccc(CC(=O)Nc3ccc(-c4ccccc4)cn3)cc2)ccn1 ; field requested: solubility at 24 h
Solution: < 2 µM

###

Molecular target: Protein-serine O-palmitoleoyltransferase porcupine (Mus musculus, UniProt Q9JJJ7)
Sequence (Q9JJJ7 whole entry): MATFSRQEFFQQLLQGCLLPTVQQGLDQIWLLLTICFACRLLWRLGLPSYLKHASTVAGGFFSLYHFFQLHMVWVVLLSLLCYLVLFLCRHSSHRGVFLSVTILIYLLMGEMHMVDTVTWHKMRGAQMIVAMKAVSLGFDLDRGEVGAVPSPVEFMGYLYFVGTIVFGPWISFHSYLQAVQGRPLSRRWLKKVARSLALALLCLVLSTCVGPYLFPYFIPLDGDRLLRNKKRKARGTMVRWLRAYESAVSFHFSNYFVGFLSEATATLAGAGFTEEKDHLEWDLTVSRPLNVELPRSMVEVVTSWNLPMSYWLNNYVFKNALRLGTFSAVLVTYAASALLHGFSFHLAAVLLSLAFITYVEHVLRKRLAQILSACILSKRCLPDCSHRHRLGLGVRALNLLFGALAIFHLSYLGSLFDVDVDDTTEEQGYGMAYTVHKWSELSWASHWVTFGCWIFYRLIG
Assay: Inhibition of PORCN in […] overexpressing Wnt3A co-cultured with TM3 cells transfected with Wnt-luciferase gene after 24 hrs by luminescence assay
pIC50: −log10 of the molar value.
attribute-measured: pIC50

Cc1cc(CC(=O)Nc2ccc(-c3cnccn3)cn2)cnc1-c1ccnc(CO)c1 7.59

a. CC(=O)N1CCN(c2ccc(NC(=O)Cc3cnc(-c4ccnc(F)c4)c(C)c3)nc2)CC1
b. Cc1cc(-c2ccc(CC(=O)Nc3ccc(-c4ccccc4)cn3)cn2)ccn1
Exercise: Hey, which is lower on measured pIC50, a or b ? Please respond with the label that marks your chosen entry.
Solution: a
(a: 9.10, b: 9.70)
